Biological target: Pdr3 (UniProt P33200)
Sequence: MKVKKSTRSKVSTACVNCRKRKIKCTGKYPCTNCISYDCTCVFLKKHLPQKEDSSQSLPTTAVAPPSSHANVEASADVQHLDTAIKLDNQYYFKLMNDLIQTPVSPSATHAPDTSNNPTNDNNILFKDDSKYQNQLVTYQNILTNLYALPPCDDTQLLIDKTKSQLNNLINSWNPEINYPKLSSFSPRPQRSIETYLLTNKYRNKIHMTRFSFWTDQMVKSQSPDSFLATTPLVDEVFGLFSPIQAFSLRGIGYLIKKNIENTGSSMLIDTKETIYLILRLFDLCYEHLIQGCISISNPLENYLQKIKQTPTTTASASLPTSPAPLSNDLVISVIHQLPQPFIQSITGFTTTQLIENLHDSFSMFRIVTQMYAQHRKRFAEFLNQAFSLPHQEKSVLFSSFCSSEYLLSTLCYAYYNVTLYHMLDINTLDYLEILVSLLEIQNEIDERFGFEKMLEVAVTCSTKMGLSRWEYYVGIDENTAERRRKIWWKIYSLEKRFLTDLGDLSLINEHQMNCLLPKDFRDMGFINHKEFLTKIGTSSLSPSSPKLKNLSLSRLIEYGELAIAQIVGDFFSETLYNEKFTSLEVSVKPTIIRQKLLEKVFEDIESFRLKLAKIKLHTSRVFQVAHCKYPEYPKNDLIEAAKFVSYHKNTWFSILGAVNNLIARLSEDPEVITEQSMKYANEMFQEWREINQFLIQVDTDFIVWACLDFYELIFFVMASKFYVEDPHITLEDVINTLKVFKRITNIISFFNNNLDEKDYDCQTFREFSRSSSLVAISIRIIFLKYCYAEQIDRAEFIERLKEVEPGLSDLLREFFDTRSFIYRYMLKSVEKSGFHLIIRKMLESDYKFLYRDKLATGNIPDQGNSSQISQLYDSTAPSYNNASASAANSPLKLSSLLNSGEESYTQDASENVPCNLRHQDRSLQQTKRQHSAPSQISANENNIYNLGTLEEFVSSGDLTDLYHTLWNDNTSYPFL
Experiment: PBM E-score (8-mer binding enrichment) (E-score (-0.5 to 0.5)); higher = stronger / more preferred TF binding
Settings: protein concentration: 200 nM; construct: GST-full length
Whole data set: some 33,000 sequences, median “E-score (-0.5 to 0.5)” near -0.035, cut for the highest 2% near 0.35. The list comes from a sample in which the highest values are over-represented; it also holds close analogues and randomly drawn sequences.
property: PBM E-score
Respond using a number only.

sequence	observedMeasurement
CCCCGCAG	0.225
CCCCGGAG	0.355
ATGCTCTC	-0.108
AATAGCGT	0.0358
AAACGGAG	0.184

Let me know recorded PBM E-score for GAACGGCA , thanks.
0.256

Reference source for all entries: the supplement of paper PMC3334620
